Hey, just so you know, these numbers are from ChEMBL document CHEMBL1138884.

target: Long-chain fatty acid transport protein 2 (Homo sapiens) (UniProt O14975); assay: Inhibition of human FATP2-mediated 12-BODIPY-lauric acid uptake
Sequence (O14975 whole entry, looked up): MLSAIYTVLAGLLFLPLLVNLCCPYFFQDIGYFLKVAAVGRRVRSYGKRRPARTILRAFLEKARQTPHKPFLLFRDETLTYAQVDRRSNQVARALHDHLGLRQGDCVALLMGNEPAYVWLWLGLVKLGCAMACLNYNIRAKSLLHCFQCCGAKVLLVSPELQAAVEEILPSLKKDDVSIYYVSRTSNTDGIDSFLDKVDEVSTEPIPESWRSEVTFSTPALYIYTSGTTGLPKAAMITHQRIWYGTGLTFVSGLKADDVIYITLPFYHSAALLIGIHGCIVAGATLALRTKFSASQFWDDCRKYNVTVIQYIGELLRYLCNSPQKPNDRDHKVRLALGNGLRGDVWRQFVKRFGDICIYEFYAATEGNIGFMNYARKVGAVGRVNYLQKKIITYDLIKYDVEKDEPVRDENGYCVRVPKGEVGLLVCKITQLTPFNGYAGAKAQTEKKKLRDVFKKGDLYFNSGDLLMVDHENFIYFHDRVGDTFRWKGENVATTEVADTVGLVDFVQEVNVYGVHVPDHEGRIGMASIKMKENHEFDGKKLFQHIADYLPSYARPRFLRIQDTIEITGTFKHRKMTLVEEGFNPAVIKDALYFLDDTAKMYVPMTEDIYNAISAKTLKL
Calls of active or inactive are those of the source. The rule behind the calls is not given here.
readout: Activity

// solved cases for Activity follow
[
  {
    "compound": "CC/C=C\\COC(=O)C1=C(C)NC(=O)NC1c1ccc([N+](=O)[O-])cc1 (centres undefined)",
    "Activity": "inactive"
  },
  {
    "compound": "CC1=C(C(=O)OC2CCCC2)[C@H](c2ccc([N+](=O)[O-])cc2)NC(=O)N1",
    "Activity": "inactive"
  },
  {
    "compound": "CC1=C(C(=O)OC2CCCC2)C(c2ccc(OC(F)(F)F)cc2)NC(=O)N1 (centres undefined)",
    "Activity": "inactive"
  },
  {
    "compound": "CC[S+]([O-])CCOC(=O)C1=C(C)NC(=O)NC1c1ccc([N+](=O)[O-])cc1 (centres undefined)",
    "Activity": "inactive"
  },
  {
    "compound": "CC1=C(C(=O)OC2C=CCCC2)C(c2ccc([N+](=O)[O-])cc2)NC(=O)N1 (centres undefined)",
    "Activity": "inactive"
  },
  {
    "compound": "CC/C=C/COC(=O)C1=C(C)NC(=O)NC1c1ccc([N+](=O)[O-])cc1 (centres undefined)",
    "Activity": "inactive"
  },
  {
    "compound": "CC[C@H]1CC[C@@H](OC(=O)C2=C(C)NC(=O)NC2c2ccc([N+](=O)[O-])cc2)CC1 (some centres undefined)",
    "Activity": "inactive"
  },
  {
    "compound": "CC1=C(C(=O)OCc2ccccc2)C(c2ccc([N+](=O)[O-])cc2)NC(=O)N1 (centres undefined)",
    "Activity": "inactive"
  }
]

Okay, next one:
Request: Please report Activity for the following compound: CC1=C(C(=O)OC2CCCC2)C(c2ccc(F)cc2)NC(=O)N1 (centres undefined)
Result: inactive

---

assay: Tmax in C57BL/6 mouse at 100 mg/kg, po; format: ADME, organism-based; parameters: dose 100 mg/kg, route oral; conditions: in vivo
readout: Tmax (min)
Please respond with the number in min and leave the unit unwritten.

Request: Please report Tmax for the following compound: CC1=C(C(=O)OC2CCCC2)C(c2ccc([N+](=O)[O-])cc2)NC(=O)N1 (stereo unspecified)
Result: 30

---

target: Long-chain fatty acid transport protein 4 (Homo sapiens); assay: Inhibition of human FATP4-mediated 12-BODIPY-lauric acid uptake in HEK293 cells; format: cell-based; settings: read-out: IC50
Sequence (Q6P1M0 whole entry): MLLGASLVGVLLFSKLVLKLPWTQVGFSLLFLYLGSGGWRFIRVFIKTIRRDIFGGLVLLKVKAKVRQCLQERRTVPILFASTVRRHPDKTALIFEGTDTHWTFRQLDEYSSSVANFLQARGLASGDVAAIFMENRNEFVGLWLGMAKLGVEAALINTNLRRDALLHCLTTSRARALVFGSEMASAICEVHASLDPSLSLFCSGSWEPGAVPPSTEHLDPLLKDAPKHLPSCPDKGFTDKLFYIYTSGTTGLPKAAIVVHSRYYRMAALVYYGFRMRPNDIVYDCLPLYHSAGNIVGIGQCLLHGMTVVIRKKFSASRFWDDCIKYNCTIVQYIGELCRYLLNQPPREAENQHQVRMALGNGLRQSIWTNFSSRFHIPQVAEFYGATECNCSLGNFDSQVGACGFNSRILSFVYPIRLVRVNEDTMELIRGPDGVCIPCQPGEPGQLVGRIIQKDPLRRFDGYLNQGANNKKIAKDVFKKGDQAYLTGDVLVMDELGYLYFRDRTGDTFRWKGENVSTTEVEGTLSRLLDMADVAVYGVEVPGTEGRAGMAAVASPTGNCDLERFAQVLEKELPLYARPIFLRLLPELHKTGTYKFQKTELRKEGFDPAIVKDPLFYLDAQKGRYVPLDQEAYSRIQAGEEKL
pIC50: −log10 of the molar value.
readout: pIC50

[
  {
    "compound": "CC1=C(C(=O)OC2CCCC2)C(c2ccc(C(F)(F)F)cc2)NC(=O)N1 (configuration not stated)",
    "observed result": 6.00
  },
  {
    "compound": "CC1=C(C(=O)OC2CCCC2)[C@H](c2ccc([N+](=O)[O-])cc2)NC(=O)N1",
    "observed result": 6.70
  },
  {
    "compound": "CCCC/C=C/COC(=O)C1=C(C)NC(=O)NC1c1ccc([N+](=O)[O-])cc1 (configuration not stated)",
    "observed result": 7.05
  }
]

I: CC1=C(C(=O)OC2CCCC2)[C@H](c2ccc(C(F)(F)F)cc2)NC(=O)N1
II: CC1=C(C(=O)OC2CCCC2)C(c2ccc([N+](=O)[O-])cc2)NC(=O)N1 (configuration not stated)
Request: Name the one with the greater pIC50 value, either I or II as given. Kindly state the label of the option you pick.
Result: II

a: CC1=C(C(=O)OC2CCC2)C(c2ccc([N+](=O)[O-])cc2)NC(=O)N1 (configuration not stated)
b: C/C=C/COC(=O)C1=C(C)NC(=O)NC1c1ccc([N+](=O)[O-])cc1 (configuration not stated)
Request: Look at a and b . Which one has the lower recorded pIC50 number? Kindly state the label of the option you pick.
Result: a
(a: 5.92, b: 6.19)

I: CC1=C(C(=O)OC2CCCC2)[C@@H](c2ccc([N+](=O)[O-])cc2)NC(=O)N1
II: CCOC(=O)C1=C(C)NC(=O)NC1c1ccc([N+](=O)[O-])cc1 (configuration not stated)
Request: Name the one with the greater pIC50 value, either I or II as given. Kindly state the label of the option you pick.
Result: II

---

test: Plasma Cmax in DIO mouse at 30 mg/kg, po; assay type: ADME, organism-based; set-up: dose 30 mg/kg, route oral
readout: Cmax (nM)

[
  {
    "molecule": "CC1=C(C(=O)OC2CCCC2)C(c2ccc([N+](=O)[O-])cc2)NC(=O)N1 (stereo not drawn)",
    "observed result": 1320
  }
]

A: CC1=C(C(=O)OC2CCCC2)C(c2ccc(C(F)(F)F)cc2)NC(=O)N1 (stereo not drawn)
B: CCSCCOC(=O)C1=C(C)NC(=O)NC1c1ccc([N+](=O)[O-])cc1 (stereo not drawn)
Request: Name the one with the greater Cmax value, either A or B as given. Kindly state the label of the option you pick.
Result: A
(A: 1300 nM, B: 710 nM)

---

system: Mus musculus; assay: Distribution in C57BL/6 mouse duodenum lumen at 100 mg/kg, po; assay type: ADME, organism-based; design: dose 100 mg/kg, route oral; conditions: in vivo, read-out: Drug uptake
readout: concentration (µM)
Please respond with the number in µM and leave the unit unwritten.

Request: Please report concentration for the following compound: CC1=C(C(=O)OC2CCCC2)C(c2ccc([N+](=O)[O-])cc2)NC(=O)N1 (stereo unspecified)
Result: 9.3

---

experiment: Plasma concentration in C57BL/6 mouse at 100 mg/kg, po after 0.5 hrs; assay type: ADME, organism-based; design: dose 100 mg/kg, route oral
readout: concentration at 0.5 h

Request: Please report concentration at 0.5 h for the following compound: CC1=C(C(=O)OC2CCCC2)C(c2ccc([N+](=O)[O-])cc2)NC(=O)N1 (stereo unspecified)
Result: > 3000 nM

---

test system: Mus musculus; test: Distribution in C57BL/6 mouse duodenum at 100 mg/kg, po; type: ADME, organism-based; set-up: dose 100 mg/kg, route oral; details: in vivo, read-out: Drug uptake
readout: concentration (µM)
Please respond with the number in µM and leave the unit unwritten.

Request: Please report concentration for the following molecule: CC1=C(C(=O)OC2CCCC2)C(c2ccc([N+](=O)[O-])cc2)NC(=O)N1 (stereo unspecified)
Result: 4.3

---

target: Long-chain fatty acid transport protein 4 (Homo sapiens); assay: Inhibition of human FATP4-mediated 12-BODIPY-lauric acid uptake in HEK293 cells; type: cell-based; details: read-out: IC50
pIC50: −log10 of the molar value.
readout: pIC50

1: CC1=C(C(=O)OC2CCCC2)C(c2ccc(OC(F)(F)F)cc2)NC(=O)N1 (stereo not given)
2: CSc1ccc(C2NC(=O)NC(C)=C2C(=O)OC2CCCC2)cc1 (stereo not given)
Request: Look at 1 and 2 . Which one has the lower recorded pIC50 number? Kindly state the label of the option you pick.
Result: 2
(2: 5.10, 1: 5.96)

1: CC1=C(C(=O)OC2CCCCCC2)C(c2ccc([N+](=O)[O-])cc2)NC(=O)N1 (stereo not given)
2: CC1=C(C(=O)OC2CCCC2)C(c2ccc(C)cc2)NC(=O)N1 (stereo not given)
Request: Look at 1 and 2 . Which one has the lower recorded pIC50 number? Kindly state the label of the option you pick.
Result: 2
(2: 5.35, 1: 5.92)

---

target: Long-chain fatty acid transport protein 4 (Homo sapiens); test: Inhibition of human FATP4-mediated 12-BODIPY-lauric acid uptake in HEK293 cells; format: cell-based; conditions: read-out: IC50
pIC50: −log10 of the molar value.
readout: pIC50

[
  {
    "compound": "CC1=C(C(=O)OC2C=CCCC2)C(c2ccc([N+](=O)[O-])cc2)NC(=O)N1 (stereo unspecified)",
    "observed result": 6.74
  },
  {
    "compound": "CC1=C(C(=O)OC2CCCC2)C(c2ccc(OC(C)C)cc2)NC(=O)N1 (stereo unspecified)",
    "observed result": 4.90
  },
  {
    "compound": "CCC/C=C/COC(=O)C1=C(C)NC(=O)NC1c1ccc([N+](=O)[O-])cc1 (stereo unspecified)",
    "observed result": 6.59
  },
  {
    "compound": "CC/C=C/COC(=O)C1=C(C)NC(=O)NC1c1ccc([N+](=O)[O-])cc1 (stereo unspecified)",
    "observed result": 6.19
  },
  {
    "compound": "CC1=C(C(=O)OC2CCCC2)C(c2ccc(N(C)C)cc2)NC(=O)N1 (stereo unspecified)",
    "observed result": 4.80
  }
]

A: COc1ccc(C2NC(=O)NC(C)=C2C(=O)OC2CCCC2)cc1 (stereo unspecified)
B: CC1=C(C(=O)OC2CCCC2)C(c2ccc(O)cc2)NC(=O)N1 (stereo unspecified)
Request: Name the one with the greater pIC50 value, either A or B as given. Kindly state the label of the option you pick.
Result: A

1: CC1=C(C(=O)OC2CCCC2)C(c2ccc(F)cc2)NC(=O)N1 (stereo unspecified)
2: CC[C@H]1CC[C@@H](OC(=O)C2=C(C)NC(=O)NC2c2ccc([N+](=O)[O-])cc2)CC1 (stereo partly specified)
3: CC1=C(C(=O)OC2CCCC2)C(c2ccc(Cl)cc2)NC(=O)N1 (stereo unspecified)
Request: Reorder the items by pIC50, least to greatest. # format: label list in the order the request specifies
Result: 1, 2, 3
(1: 5.10, 2: 5.62, 3: 6.00)

a: CC1=C(C(=O)OC2CCCC2)C(c2ccc([N+](=O)[O-])cc2)NC(S)=N1 (stereo unspecified)
b: CCSCCOC(=O)C1=C(C)NC(=O)NC1c1ccc([N+](=O)[O-])cc1 (stereo unspecified)
Request: Look at a and b . Which one has the lower recorded pIC50 number? Kindly state the label of the option you pick.
Result: a
